Taken from patent US20250250265A1.

# Measurement Target: recombinant mouse NAPE-PLD (Mus musculus)
# Construct: hexahistidine (His6) (C); made in house; host or cells: E. coli
# Sequence (Q8BH82 1-396): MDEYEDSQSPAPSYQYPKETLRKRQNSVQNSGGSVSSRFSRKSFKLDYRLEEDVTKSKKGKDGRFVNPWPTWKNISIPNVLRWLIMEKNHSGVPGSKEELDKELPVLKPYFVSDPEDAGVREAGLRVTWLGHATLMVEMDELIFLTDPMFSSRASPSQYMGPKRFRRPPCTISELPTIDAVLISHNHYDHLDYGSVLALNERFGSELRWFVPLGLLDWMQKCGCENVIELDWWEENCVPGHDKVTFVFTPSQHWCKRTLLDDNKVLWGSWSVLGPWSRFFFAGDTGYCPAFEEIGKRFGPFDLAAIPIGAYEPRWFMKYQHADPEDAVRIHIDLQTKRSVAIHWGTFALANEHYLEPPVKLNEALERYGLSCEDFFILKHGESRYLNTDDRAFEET
# Assay Name: In vitro fluorescence NAPE-PLD activity assay (HTS/CRC) with recombinant mouse NAPE-PLD and PED-A1
# Format: biochemical
# Assay Context: Table 4; maximal efficacy as fold increase in NAPE-PLD activity versus vehicle only
# Procedure: Using the fluorogenic NAPE substrate, PED-A1, and recombinant mouse NAPE-PLD (rNAPE-PLD), an in vitro high-throughput (HTS) assay was conducted to screen ˜40,000 compounds for their ability to modulate NAPE-PLD activity. […] In vitro fluorescence NAPE-PLD activity assays using recombinant NAPE-PLD and either PED-A1 or flame-NAPE as fluorogenic substrate were performed as previously described except with small modifications as noted below. […]
Marks after values point to notes of the source that are not given here.
Recorded Endpoint: Emax (95% Cl)

Smiles Representation | Reported Result
COc1ccc2nc(NC(=O)C3CCN(S(=O)(=O)c4ccc(F)cc4)CC3)sc2c1 | 2.1 (2.0-2.2) fold
Cc1cccc2sc(NC(=O)C3CCN(S(=O)(=O)c4ccc(Cl)cc4)CC3)nc12 | 1.9 (1.9-2.0) fold
O=C(Nc1nc2ccccc2s1)C1CCN(S(=O)(=O)c2ccc(F)cc2)CC1 | 1.7 (1.6-1.8) fold
Cc1cccc2sc(NC(=O)C3CCN(S(=O)(=O)c4ccc(F)c(Cl)c4)CC3)nc12 | 1.9 (1.8-2.1) fold
Cc1cccc2sc(NC(=O)C3CCN(S(=O)(=O)c4cnn(C)c4)CC3)nc12 | 2.4 (2.3-2.6) fold
Cc1ccc2sc(NC(=O)C3CCN(S(=O)(=O)c4ccc(F)cc4)CC3)nc2c1C | 2.0 (2.0-2.1) fold
Cc1ccc(C)c2sc(NC(=O)C3CCN(S(=O)(=O)c4ccc(F)cc4)CC3)nc12 | 2.6 (2.6-2.8) fold
O=C(Nc1nc2ccccc2s1)C1CCN(S(=O)(=O)c2cccnc2)CC1 | 1.8 (1.7-2.0) fold
Cc1cccc2sc(NC(=O)C3CCN(S(=O)(=O)c4ccc(F)cc4)CC3)nc12 | 2.0^d fold
Cc1cc(F)ccc1S(=O)(=O)N1CCC(C(=O)Nc2nc3ccccc3s2)CC1 | <1.2 fold
Cn1cc(S(=O)(=O)N2CCC(C(=O)Nc3nc4ccccc4s3)CC2)cn1 | 1.7 (1.6-1.9) fold
Cc1cc2nc(NC(=O)C3CCN(S(=O)(=O)c4ccc(F)cc4)CC3)sc2cc1C | 2.3 (2.2-2.4) fold
COc1ccc(S(=O)(=O)N2CCC(C(=O)Nc3nc4c(C)cccc4s3)CC2)cc1 | 2.1 (2.0-2.2) fold
Cc1ccc2nc(NC(=O)C3CCN(S(=O)(=O)c4ccc(Cl)cc4)CC3)sc2c1 | 1.7 (1.6-1.8) fold
COc1cccc2sc(NC(=O)C3CCN(S(=O)(=O)c4ccc(F)cc4)CC3)nc12 | 2.0 (1.8-4.0) fold
Cc1cccc2sc(NC(=O)C3CCN(S(=O)(=O)c4cccnc4)CC3)nc12 | 2.1 (2.0-2.2) fold
O=C(Nc1nc2ccccc2s1)C1CCN(S(=O)(=O)c2ccc(F)c(Cl)c2)CC1 | <1.2 fold
Cc1cc(C)c2sc(NC(=O)C3CCN(S(=O)(=O)c4ccc(F)cc4)CC3)nc2c1 | 2.1 (2.0-2.2) fold
